Below, each entry is listed alongside its reported PBM binding z-score.
Test system: PPARg:RXRa DBDmut IVT, anti-RXR (DBD mutation: RXRa K156A/R161A, NR concentration 270 nM, RXRa partner concentration 90 nM)
Assay: PBM binding z-score (relative to random genomic background probes); higher = stronger binding; sequences stand for … in GC…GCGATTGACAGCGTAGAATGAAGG
VALUE TYPE: PBM binding z-score

INSERT INTO assay_data (sequence_data, value_type, observed) VALUES
  ('TTACCAAGGGGAAAGGTCGTTGATGCACGCCTTG', 'PBM binding z-score', 0.296),
  ('CGTCAAAGTTCAACTAAGGAAACGTAAAGCACGC', 'PBM binding z-score', 0.565),
  ('TCTGGTAGATCAAAGGTTAAGAAAGCCGAAGCCT', 'PBM binding z-score', 1.47),
  ('CGTCAAAGTTCAACTAAGGTAACGTTAAGCACGC', 'PBM binding z-score', 0.539),
  ('CCTAGTCGGTCAAGGTCACACACGCTATAGGTAC', 'PBM binding z-score', 4.58),
  ('TAGCCTATGTCATGCGGGCCAGTATAGTGTCGGC', 'PBM binding z-score', -0.318),
  ('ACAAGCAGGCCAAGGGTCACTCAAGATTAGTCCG', 'PBM binding z-score', 1.27),
  ('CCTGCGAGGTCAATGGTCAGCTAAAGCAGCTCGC', 'PBM binding z-score', 3.45),
  ('CCTACTGGGCCACCAAAGGTCATTGATTCAGTGA', 'PBM binding z-score', 5.36),
  ('CAAACAAGGTCAAGGTCAAAGTCGGTTTGTGCCA', 'PBM binding z-score', 5.99),
  ('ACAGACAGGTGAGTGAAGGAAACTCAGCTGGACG', 'PBM binding z-score', 0.214),
  ('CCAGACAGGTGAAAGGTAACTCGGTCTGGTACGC', 'PBM binding z-score', 2.3),
  ('ACTAGTTGGTCAGCTGAGCTCACACACAATTCGG', 'PBM binding z-score', 0.771),
  ('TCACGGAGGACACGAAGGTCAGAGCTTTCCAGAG', 'PBM binding z-score', 1.52),
  ('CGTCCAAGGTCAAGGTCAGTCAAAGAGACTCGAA', 'PBM binding z-score', 4.13),
  ('GCGACTGGGGCAAAACAGGTTACCATAAGGTTGG', 'PBM binding z-score', 3.9),
  ('ATACCAAGGTGTTCGTGAGGTCGTTGATACTAAC', 'PBM binding z-score', -0.0075),
  ('ACTCGGAGGACAAGGGTCAGAGCTACGCCAGTGA', 'PBM binding z-score', 0.222),
  ('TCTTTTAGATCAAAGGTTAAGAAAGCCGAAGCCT', 'PBM binding z-score', 2.09),
  ('AGAATGAGTTTAAGATCAGGGAAACAGAATACAT', 'PBM binding z-score', -0.319),
  ('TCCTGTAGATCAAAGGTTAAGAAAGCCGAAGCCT', 'PBM binding z-score', 1.82),
  ('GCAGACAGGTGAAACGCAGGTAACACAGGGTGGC', 'PBM binding z-score', 0.623),
  ('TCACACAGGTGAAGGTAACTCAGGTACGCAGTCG', 'PBM binding z-score', 2.55),
  ('CCTAGTTGGTCAAGGTCGCACACGCTATAGGTAC', 'PBM binding z-score', 1.4),
  ('TCTCGGAGGCCACGAAAGGTCAGAGCTCGACATC', 'PBM binding z-score', 1.78),
  ('GGAACGAGGGCAAGTTTATAGCAGAGTTTGATGG', 'PBM binding z-score', 3.91);
